assay: Plasma protein binding by ultrafiltration, minipig plasma; assay type: in vitro ADME; conditions: 1 µg/mL, read-out: fu (%) fraction unbound
readout_label: fraction unbound at 1 µg/mL
Answers are plain numbers.

Task: Kindly indicate its recorded fraction unbound at 1 µg/mL. Item: O=C(O)CCC(NC(=O)NC(CCCCN(Cc1ccc(Br)cc1)C(=O)CCCCCNC(=O)CN1CCN(CC(=O)O)CCN(CC(=O)O)CCN(CC(=O)O)CC1)C(=O)O)C(=O)O (stereo not shown)
Result: 0.407

----------
experiment: Plasma protein binding by ultrafiltration, mouse plasma; format: in vitro ADME; conditions: 1 µg/mL, read-out: fu (%) fraction unbound
readout_label: fraction unbound at 1 µg/mL
One number for each entry.

Task: Input O=C(O)CCC(NC(=O)NC(CCCCN(Cc1ccc(Br)cc1)C(=O)CCCCCNC(=O)CN1CCN(CC(=O)O)CCN(CC(=O)O)CCN(CC(=O)O)CC1)C(=O)O)C(=O)O (stereo not shown) , output reported fraction unbound at 1 µg/mL.
Result: 0.862

----------
test: Plasma protein binding by ultrafiltration, human plasma; type: in vitro ADME; conditions: human plasma, 1 and 5 µg/mL; read-out: Unbound fraction, range over labelled and unlabelled form
readout_label: fraction unbound

Task: Hello, please tell me recorded fraction unbound for this one: O=C(O)CCC(NC(=O)NC(CCCCN(Cc1ccc(Br)cc1)C(=O)CCCCCNC(=O)CN1CCN(CC(=O)O)CCN(CC(=O)O)CCN(CC(=O)O)CC1)C(=O)O)C(=O)O (stereo not shown)
Result: 0.25 to 0.45

----------
assay: Plasma protein binding by ultrafiltration, rat plasma; assay type: in vitro ADME; settings: 1 µg/mL, read-out: fu (%) fraction unbound
readout_label: fraction unbound at 1 µg/mL
One number for each entry.

Task: Find the measured fraction unbound at 1 µg/mL of O=C(O)CCC(NC(=O)NC(CCCCN(Cc1ccc(Br)cc1)C(=O)CCCCCNC(=O)CN1CCN(CC(=O)O)CCN(CC(=O)O)CCN(CC(=O)O)CC1)C(=O)O)C(=O)O (stereo not shown) and report it.
Result: 0.256

----------
Assay: Plasma protein binding by ultrafiltration, human plasma
Type: in vitro ADME
Conditions: human plasma, 1 µg/mL; read-out: fu (%) fraction unbound
Experimental: Plasma protein binding of PSMA-R2 and ^175Lu-PSMA-R2 has been determined by ultrafiltration method, after incubation of the compounds in human, mouse, rat and minipig plasma at two different concentrations: 1 and 5 µg/mL.
readout_label: fraction unbound at 1 µg/mL
Give bare numbers.

Task: Answer with reported fraction unbound at 1 µg/mL of O=C(O)CCC(NC(=O)NC(CCCCN(Cc1ccc(Br)cc1)C(=O)CCCCCNC(=O)CN1CCN(CC(=O)O)CCN(CC(=O)O)CCN(CC(=O)O)CC1)C(=O)O)C(=O)O (stereo not shown)
Result: 0.299

----------
experiment: Plasma protein binding by ultrafiltration, mouse plasma; assay type: in vitro ADME; conditions: 1 and 5 µg/mL, read-out: Unbound fraction, range over labelled and unlabelled form
readout_label: fraction unbound

Task: Read off the recorded fraction unbound for O=C(O)CCC(NC(=O)NC(CCCCN(Cc1ccc(Br)cc1)C(=O)CCCCCNC(=O)CN1CCN(CC(=O)O)CCN(CC(=O)O)CCN(CC(=O)O)CC1)C(=O)O)C(=O)O (stereo not shown)
Result: 0.7 to 0.86

----------
assay: Plasma protein binding by ultrafiltration, rat plasma; format: in vitro ADME; conditions: 5 µg/mL, read-out: fu (%) fraction unbound
readout_label: fraction unbound at 5 µg/mL
Give bare numbers.

Task: Supply recorded fraction unbound at 5 µg/mL for O=C(O)CCC(NC(=O)NC(CCCCN(Cc1ccc(Br)cc1)C(=O)CCCCCNC(=O)CN1CCN(CC(=O)O)CCN(CC(=O)O)CCN(CC(=O)O)CC1)C(=O)O)C(=O)O (stereo not shown) here.
Result: 0.226
